Here, each record is paired with measured IC50 data.
# systemName: rat brain cortical membranes (GABA receptor complex, [35S]-TBPS binding)
# testName: Steroid inhibition of [35S]-TBPS binding
# runConditions: 3 nM [35S]-TBPS, in the presence of 5 mM GABA

Solved entries:
CC[C@@H]1C[C@H]2[C@@H]3CC[C@H]4C[C@](C)(O)CC[C@]4(C)[C@H]3CC[C@]2(C)[C@H]1C(C)=O    ≥ 500 nM
COC[C@@H]1C[C@H]2C[C@](C)(O)CC[C@]2(C)[C@H]2CC[C@]3(C)[C@@H](C(=O)Cn4nc5ccc(OC)cc5n4)CC[C@H]3[C@H]12    ≥ 500 nM

Data point: COC[C@@H]1C[C@H]2C[C@](C)(O)CC[C@]2(C)[C@H]2CC[C@]3(C)[C@@H](C(=O)Cn4cc5ccncc5n4)CC[C@H]3[C@H]12 ; IC50 = ≥ 500 nM

---

pIC50 for assorted compounds
# systemName: rat brain cortical membranes (GABA receptor complex, [35S]-TBPS binding)
# testName: Steroid inhibition of [35S]-TBPS binding
# runConditions: 3 nM [35S]-TBPS, in the presence of 5 mM GABA
pIC50: −log10 of the molar value.

Example compounds with recorded pIC50:
CO[C@H]1C[C@H]2[C@@H](CC[C@H]3C[C@](C)(O)CC[C@@]32C)[C@@H]2CC[C@H](C(C)=O)[C@@]12C    ≤ 6.30
Cc1nnnn1CC(=O)[C@H]1[C@H](C)C[C@H]2[C@@H]3CC[C@H]4C[C@](C)(O)CC[C@]4(C)[C@H]3CC[C@@]21C    6.30 to 7.00
C[C@@]1(O)CC[C@@]2(C)[C@@H](C[C@@H](O)[C@@H]3[C@@H]2CC[C@]2(C)[C@@H](C(=O)Cn4cc5ccncc5n4)CC[C@@H]32)C1    ≤ 6.30

Short answer for CO[C@@H]1C[C@H]2[C@@H](CC[C@@H]3C[C@](C)(O)CC[C@@H]32)[C@@H]2CC[C@H](C(C)=O)[C@@]12C : pIC50 was 7.00 to 7.30

Query COc1ccc2nn(CC(=O)[C@H]3[C@H](C)C[C@H]4[C@@H]5CC[C@H]6C[C@](C)(O)CC[C@]6(C)[C@H]5CC[C@@]43C)nc2c1 yields pIC50 of 7.30 to 8.00

---

# systemName: rat brain cortical membranes (GABA receptor complex, [35S]-TBPS binding)
# testName: Steroid inhibition of [35S]-TBPS binding
# runConditions: 3 nM [35S]-TBPS, in the presence of 5 mM GABA
pIC50: −log10 of the molar value.
parameter: pIC50

Examples from the recorded data:
CO[C@@H]1C[C@H]2[C@@H](CC[C@H]3C[C@](C)(O)CC[C@@]32C)[C@@H]2CC[C@H](C(C)=O)[C@@]12C [Compound 43]    6.30 to 7.00
COC[C@@H]1C[C@H]2C[C@](C)(O)CC[C@]2(C)[C@H]2CC[C@]3(C)[C@@H](C(=O)Cn4nnc5ccc(OC)cc54)CC[C@H]3[C@H]12 [Compound 19]    ≤ 6.30

Next, consider the following molecule.
The measured pIC50 associated with CO[C@@H]1C[C@H]2[C@@H](CC[C@H]3C[C@](C)(O)CC[C@@]32C)[C@@H]2CC[C@H](C(=O)Cn3nnnc3C)[C@@]12C [Compound 61] reads 6.30 to 7.00
